Each record here notes measured Body Weight Change on Day 4.
# Test system: P388 murine leukemia
# procedure_details: In vivo antitumor activity against P388 leukemia (ip tumor implant / ip drug)
# assay_context: dose 0.05 mg/kg/day ip, once daily for five days
measurement_kind: Body Weight Change on Day 4

[[record]]
compound = "COc1ccc2nc(C(=O)NC3COC(=O)C(C(C)(C)O)N(C)C(=O)CN(C)C(=O)CNC(=O)C4C(OC(=O)C(C)C)CC=NN4C(=O)C(NC(=O)c4cnc5cc(OC)ccc5n4)COC(=O)C(C(C)(C)O)N(C)C(=O)CN(C)C(=O)CNC(=O)C4C(OC(=O)CC(C)C)CC=NN4C3=O)cnc2c1 (stereo not drawn)"
target_entity = "P388 murine leukemia"
numeric_value = 0.2

[[record]]
compound = "CCC(=O)OC1CC=NN2C(=O)C(NC(=O)c3cnc4cc(OC)ccc4n3)COC(=O)C(C(C)(C)O)N(C)C(=O)CN(C)C(=O)CNC(=O)C3C(OC(=O)C(C)C)CC=NN3C(=O)C(NC(=O)c3cnc4cc(OC)ccc4n3)COC(=O)C(C(C)(C)O)N(C)C(=O)CN(C)C(=O)CNC(=O)C12 (stereo not drawn)"
target_entity = "P388 murine leukemia"
numeric_value = -0.4

[[record]]
compound = "COc1ccc2nc(C(=O)NC3COC(=O)C(C(C)(C)O)N(C)C(=O)CN(C)C(=O)CNC(=O)C4C(OC(=O)CC(C)C)CC=NN4C(=O)C(NC(=O)c4cnc5cc(OC)ccc5n4)COC(=O)C(C(C)(C)O)N(C)C(=O)CN(C)C(=O)CNC(=O)C4C(OC(=O)CC(C)C)CC=NN4C3=O)cnc2c1 (stereo not drawn)"
target_entity = "P388 murine leukemia"
numeric_value = -0.8


* * *

# Test system: P388 murine leukemia
# procedure_details: In vivo antitumor activity against P388 leukemia (ip tumor implant / ip drug)
# assay_context: dose 0.2 mg/kg/day ip, once daily for five days; CDF1 female mice, ip P388
measurement_kind: Median Survival Time

[[record]]
compound = "CCC(=O)OC1CC=NN2C(=O)C(NC(=O)c3cnc4cc(OC)ccc4n3)COC(=O)C(C(C)(C)O)N(C)C(=O)CN(C)C(=O)CNC(=O)C3C(OC(=O)C(C)C)CC=NN3C(=O)C(NC(=O)c3cnc4cc(OC)ccc4n3)COC(=O)C(C(C)(C)O)N(C)C(=O)CN(C)C(=O)CNC(=O)C12 (stereo not shown) [BMY-46408]"
target_entity = "P388 murine leukemia"
numeric_value = 15.5

[[record]]
compound = "COc1ccc2nc(C(=O)NC3COC(=O)C(C(C)(C)O)N(C)C(=O)CN(C)C(=O)CNC(=O)C4C(OC(=O)C(C)C)CC=NN4C(=O)C(NC(=O)c4cnc5cc(OC)ccc5n4)COC(=O)C(C(C)(C)O)N(C)C(=O)CN(C)C(=O)CNC(=O)C4C(OC(=O)CC(C)C)CC=NN4C3=O)cnc2c1 (stereo not shown) [BMY-46404]"
target_entity = "P388 murine leukemia"
numeric_value = 13.5


* * *

# Test system: P388 murine leukemia
# procedure_details: In vivo antitumor activity against P388 leukemia (ip tumor implant / ip drug)
# assay_context: dose 0.02 mg/kg/day ip, once daily for five days
Starred links: 1 amine or outer side, 2 acyl side, 3 side chain; linkers in the order of their positions; H or OH if unused. Positions of bridges follow the written chain, without caps; N, C: chain ends. Non-standard residues stand in square brackets, D forms with d. Residues, ends and D or L forms follow the SMILES beside them. Chains are numbered I, II in the order given. ξ: configuration not given here. *: point of attachment. X2 = CC(C)C(=O)OC1CC=NN([*:1])C1C(=O)[*:2]; ξNMeVal(3-OH) = CNC(C(=O)O)C(C)(C)O; X1 = COc1ccc2nc(C(=O)*)cnc2c1; Sar = CNCC(=O)O
Each record here notes measured Body Weight Change on Day 4.
measurement_kind: Body Weight Change on Day 4

[[record]]
molecule = "COc1ccc2nc(C(=O)NC3COC(=O)C(C(C)(C)O)N(C)C(=O)CN(C)C(=O)CNC(=O)C4C(OC(=O)C(C)C)CC=NN4C(=O)C(NC(=O)c4cnc5cc(OC)ccc5n4)COC(=O)C(C(C)(C)O)N(C)C(=O)CN(C)C(=O)CNC(=O)C4C(OC(=O)CC(C)C)CC=NN4C3=O)cnc2c1 (centres unmarked)"
numeric_value = -0.1

[[record]]
molecule = "COc1ccc2nc(C(=O)NC3COC(=O)C(C(C)(C)O)N(C)C(=O)CN(C)C(=O)CNC(=O)C4C(OC(=O)CC(C)C)CC=NN4C(=O)C(NC(=O)c4cnc5cc(OC)ccc5n4)COC(=O)C(C(C)(C)O)N(C)C(=O)CN(C)C(=O)CNC(=O)C4C(OC(=O)CC(C)C)CC=NN4C3=O)cnc2c1 (centres unmarked)"
numeric_value = -0.8

[[record]]
molecule = "CCC(=O)OC1CC=NN2C(=O)C(NC(=O)c3cnc4cc(OC)ccc4n3)COC(=O)C(C(C)(C)O)N(C)C(=O)CN(C)C(=O)CNC(=O)C3C(OC(=O)C(C)C)CC=NN3C(=O)C(NC(=O)c3cnc4cc(OC)ccc4n3)COC(=O)C(C(C)(C)O)N(C)C(=O)CN(C)C(=O)CNC(=O)C12 (centres unmarked)"
numeric_value = -0.1

[[record]]
molecule = "CCC(=O)OC1CC=NN2C(=O)C(NC(=O)c3cnc4cc(OC)ccc4n3)COC(=O)C(C(C)(C)O)N(C)C(=O)CN(C)C(=O)CNC(=O)C3C(OC(C)=O)CC=NN3C(=O)C(NC(=O)c3cnc4cc(OC)ccc4n3)COC(=O)C(C(C)(C)O)N(C)C(=O)CN(C)C(=O)CNC(=O)C12 (centres unmarked)"
numeric_value = 1.0

[[record]]
molecule = "COc1ccc2nc(C(=O)NC3COC(=O)C(C(C)(C)O)N(C)C(=O)CN(C)C(=O)CNC(=O)C4C(OC(=O)C(C)C)CC=NN4C(=O)C(NC(=O)c4cnc5cc(OC)ccc5n4)COC(=O)C(C(C)(C)O)N(C)C(=O)CN(C)C(=O)CNC(=O)C4C(OC(=O)C(C)C)CC=NN4C3=O)cnc2c1 (centres unmarked) [BMY-45012] (I: X1-S[X2]G[Sar][ξNMeVal(3-OH)] / II: X1-S[X2]G[Sar][ξNMeVal(3-OH)]; ester I:1-II:C, I:C-II:1; configuration not given here)"
numeric_value = -0.4


* * *

Each record here notes measured Body Weight Change on Day 4.
# Tested on: P388 murine leukemia
# procedure_details: In vivo antitumor activity against P388 leukemia (ip tumor implant / ip drug);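 note: dosing started the day after tumor implantation, and %T/C expresses median survival of treated mice relative to the saline-treated control group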
# assay_context: dose 0.2 mg/kg/day ip, once daily for five days
Starred links: 1 amine or outer side, 2 acyl side, 3 side chain; linkers in the order of their positions; H or OH if unused. Positions of bridges follow the written chain, without caps; N, C: chain ends. Non-standard residues stand in square brackets, D forms with d. Residues, ends and D or L forms follow the SMILES beside them. Chains are numbered I, II in the order given. ξ: configuration not given here. *: point of attachment. X2 = CC(C)C(=O)OC1CC=NN([*:1])C1C(=O)[*:2]; ξNMeVal(3-OH) = CNC(C(=O)O)C(C)(C)O; X1 = COc1ccc2nc(C(=O)*)cnc2c1; Sar = CNCC(=O)O
measurement_kind: Body Weight Change on Day 4

[[record]]
molecule = "COc1ccc2nc(C(=O)NC3COC(=O)C(C(C)(C)O)N(C)C(=O)CN(C)C(=O)CNC(=O)C4C(OC(=O)C(C)C)CC=NN4C(=O)C(NC(=O)c4cnc5cc(OC)ccc5n4)COC(=O)C(C(C)(C)O)N(C)C(=O)CN(C)C(=O)CNC(=O)C4C(OC(=O)C(C)C)CC=NN4C3=O)cnc2c1 (centres unmarked) [BMY-45012] (I: X1-S[X2]G[Sar][ξNMeVal(3-OH)] / II: X1-S[X2]G[Sar][ξNMeVal(3-OH)]; ester I:1-II:C, I:C-II:1; configuration not given here)"
measurement_kind = "Body Weight Change on Day 4"
numeric_value = -0.7

[[record]]
molecule = "CCC(=O)OC1CC=NN2C(=O)C(NC(=O)c3cnc4cc(OC)ccc4n3)COC(=O)C(C(C)(C)O)N(C)C(=O)CN(C)C(=O)CNC(=O)C3C(OC(=O)C(C)C)CC=NN3C(=O)C(NC(=O)c3cnc4cc(OC)ccc4n3)COC(=O)C(C(C)(C)O)N(C)C(=O)CN(C)C(=O)CNC(=O)C12 (centres unmarked)"
measurement_kind = "Body Weight Change on Day 4"
numeric_value = 0.2

[[record]]
molecule = "COc1ccc2nc(C(=O)NC3COC(=O)C(C(C)(C)O)N(C)C(=O)CN(C)C(=O)CNC(=O)C4C(OC(=O)C(C)C)CC=NN4C(=O)C(NC(=O)c4cnc5cc(OC)ccc5n4)COC(=O)C(C(C)(C)O)N(C)C(=O)CN(C)C(=O)CNC(=O)C4C(OC(=O)CC(C)C)CC=NN4C3=O)cnc2c1 (centres unmarked)"
measurement_kind = "Body Weight Change on Day 4"
numeric_value = -0.0

[[record]]
molecule = "CCC(=O)OC1CC=NN2C(=O)C(NC(=O)c3cnc4cc(OC)ccc4n3)COC(=O)C(C(C)(C)O)N(C)C(=O)CN(C)C(=O)CNC(=O)C3C(OC(C)=O)CC=NN3C(=O)C(NC(=O)c3cnc4cc(OC)ccc4n3)COC(=O)C(C(C)(C)O)N(C)C(=O)CN(C)C(=O)CNC(=O)C12 (centres unmarked)"
measurement_kind = "Body Weight Change on Day 4"
numeric_value = -0.01

[[record]]
molecule = "COc1ccc2nc(C(=O)NC3COC(=O)C(C(C)(C)O)N(C)C(=O)CN(C)C(=O)CNC(=O)C4C(OC(=O)CC(C)C)CC=NN4C(=O)C(NC(=O)c4cnc5cc(OC)ccc5n4)COC(=O)C(C(C)(C)O)N(C)C(=O)CN(C)C(=O)CNC(=O)C4C(OC(=O)CC(C)C)CC=NN4C3=O)cnc2c1 (centres unmarked)"
measurement_kind = "Body Weight Change on Day 4"
numeric_value = -3.4

